This document collects pIC50 values reported for Caspase-8 (Homo sapiens).
Scale: negative log10 of molar concentration, which is what pIC50 denotes.

Consider the reported pIC50 for these compounds:
compound="CC(C)(C)c1cc2nc3n(c(O)c-2n1)[C@H](C(=O)N[C@H]1CC(=O)OC1O)CC3 (some centres undefined)" target_under_test="Caspase-8 (Homo sapiens)" value_measured=5.12
compound="O=C1C[C@H](NC(=O)[C@@H]2CCc3nc4cc(-c5cccc(Cl)c5)nc-4c(O)n32)C(O)O1 (some centres undefined)" target_under_test="Caspase-8 (Homo sapiens)" value_measured=5.74
compound="O=C1C[C@H](NC(=O)[C@@H]2CCc3nc4cc(-c5ccccc5Cl)nc-4c(O)n32)C(O)O1 (some centres undefined)" target_under_test="Caspase-8 (Homo sapiens)" value_measured=6.47

Next:
So what does the record say about pIC50 for O=C1C[C@H](NC(=O)[C@@H]2CCc3nc4ccccc4c(=O)n32)C(O)O1 (some centres undefined) ?
5.00
